- measurementProtocol: Permeability of the compound at 10 uM at pH 7.4 after 5 hrs by PAMPA
- Format: ADME
- experimentalSetup: read-out: permeability
measuredProperty: Papp at 5 h, 10 µM (×10⁻⁶ cm/s)
Give bare numbers, in ×10⁻⁶ cm/s.

# input molecule: Cc1cc(SC(Cc2ccccc2)c2ccc(-c3ccc(C(F)(F)F)cc3)cc2)ccc1OCC(=O)O (stereo unspecified) ; wanted: its Papp at 5 h, 10 µM
9.54

---

- measurementProtocol: Volume of distribution at steady state in Sprague-Dawley rat at 1 mg/kg, iv by LC-MS/MS analysis
- Format: ADME, organism-based
- experimentalSetup: in vivo, read-out: Vdss
measuredProperty: Vd (L/kg)
One number for each entry, in L/kg.

# input compound: Cc1cc(SC(Cc2ccccc2)c2ccc(-c3ccc(C(F)(F)F)cc3)cc2)ccc1OCC(=O)O (stereo unspecified) ; wanted: its Vd
1

---

- targetSystem: CYP1A2 (Homo sapiens)
- Sequence (P05177 whole entry): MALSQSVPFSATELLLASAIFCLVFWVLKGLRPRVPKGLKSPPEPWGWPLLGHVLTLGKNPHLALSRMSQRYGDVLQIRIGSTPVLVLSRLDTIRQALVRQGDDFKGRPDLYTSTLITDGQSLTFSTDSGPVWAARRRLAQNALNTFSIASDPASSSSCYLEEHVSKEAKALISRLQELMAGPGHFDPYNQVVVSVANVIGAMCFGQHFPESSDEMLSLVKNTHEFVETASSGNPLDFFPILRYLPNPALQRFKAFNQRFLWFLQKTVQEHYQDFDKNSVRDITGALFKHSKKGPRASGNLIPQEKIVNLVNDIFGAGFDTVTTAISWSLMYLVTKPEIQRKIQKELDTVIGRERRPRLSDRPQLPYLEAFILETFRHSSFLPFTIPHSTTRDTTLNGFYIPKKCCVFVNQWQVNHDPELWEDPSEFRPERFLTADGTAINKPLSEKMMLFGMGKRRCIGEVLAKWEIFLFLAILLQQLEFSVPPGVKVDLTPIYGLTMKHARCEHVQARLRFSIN
- measurementProtocol: Inhibition of phenacetin O-deethylase activity of CYP1A2 in human liver microsomes at 10 uM preincubated for 5 mins followed by NADPH addition measured after 15 mins by LC-MS/MS analysis
- Format: ADME
- experimentalSetup: probe phenacetin (O-deethylation)
measuredProperty: inhibition at 0.25 h, 10 µM (%)
Answers are plain numbers, in %.

# input molecule: Cc1cc(SC(Cc2ccccc2)c2ccc(-c3ccc(C(F)(F)F)cc3)cc2)ccc1OCC(=O)O (stereo unspecified) ; wanted: its inhibition at 0.25 h, 10 µM
1.5

---

- targetSystem: Peroxisome proliferator-activated receptor delta (Homo sapiens, UniProt Q03181)
- Sequence (Q03181 whole entry): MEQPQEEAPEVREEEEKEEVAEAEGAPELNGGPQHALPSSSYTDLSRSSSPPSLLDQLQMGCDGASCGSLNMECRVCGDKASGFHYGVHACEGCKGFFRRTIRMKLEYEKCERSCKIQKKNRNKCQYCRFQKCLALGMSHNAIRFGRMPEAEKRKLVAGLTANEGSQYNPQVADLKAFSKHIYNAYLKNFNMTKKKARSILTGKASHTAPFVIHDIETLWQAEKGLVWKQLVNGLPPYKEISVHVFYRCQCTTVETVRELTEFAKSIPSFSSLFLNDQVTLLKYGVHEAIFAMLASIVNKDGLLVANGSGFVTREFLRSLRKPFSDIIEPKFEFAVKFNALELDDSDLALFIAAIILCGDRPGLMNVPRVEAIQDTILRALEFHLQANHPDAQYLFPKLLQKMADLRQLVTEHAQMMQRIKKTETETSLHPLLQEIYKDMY
- measurementProtocol: Transactivation of human PPARdelta expressed in monkey CV-1 cells coexpressing TK-PPRE-Luc after 24 hrs by luciferase reporter gene assay
measuredProperty: pEC50
Numbers only, as −log10 of the molar value.

compound	pEC50
Cc1cc(S[C@H](Cc2ccccc2)c2ccc(-c3ccc(C(F)(F)F)cc3)cc2)ccc1OCC(=O)O	9.15
Cc1cc(SC(Cc2cc(Cl)ccc2Cl)c2ccc(-c3cc(F)c(F)c(F)c3)cc2)ccc1OCC(=O)O (stereo not drawn)	8.02

In the following, a different compound is considered.
What value of pEC50 on Peroxisome proliferator-activated receptor delta (Homo sapiens, UniProt Q03181) does Cc1cc(SC(Cc2cc(C(F)(F)F)ccc2F)c2ccc(-c3ccc(F)cc3)cc2)ccc1OCC(=O)O (stereo not drawn) have?
7.42

---

- measurementProtocol: Metabolic stability in dog liver microsomes assessed as parent compound remaining at 1 uM after 30 mins in presence of NADPH by LC-MS/MS analysis
- Assay type: ADME, Canis lupus familiaris, microsome
- experimentalSetup: read-out: Stability
measuredProperty: remaining at 0.5 h, 1 µM

# input compound: Cc1cc(SC(Cc2ccccc2)c2ccc(-c3ccc(C(F)(F)F)cc3)cc2)ccc1OCC(=O)O (stereo unspecified) ; wanted: its remaining at 0.5 h, 1 µM
> 100%

Hey, just so you know, these numbers are from ChEMBL document CHEMBL4229483.
